molecular target: ADP-ribosylation factor GTPase-activating protein 1 (Rattus norvegicus); experiment: IC50 of ARFGAP1-driven ARF1 GTPase inhibition – biochemical, fluorescence polarization, round 000, late-stage follow-up (AID 743243); conditions: ARFGAP1-stimulated ARF1 GTP hydrolysis, GDP fluorescence polarization
The source made the active and inactive calls.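 The calls were made as follows: active = IC50 of 10 µM or lower; inactive = IC50 above 10 µM.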
In this exercise, the only acceptable responses are active, inactive

Short answer needed: outcome of this test for "O=C(NCCc1nc2ccccc2[nH]1)c1ccc2c(c1)C(=O)N(c1ccc(F)cc1)C2=O" ?
inactive

Short answer needed: outcome of this test for "O=C(COC(=O)c1ccc2c(c1)C(=O)N(c1cccc(Cl)c1Cl)C2=O)c1ccc(F)cc1" ?
inactive

Short answer needed: outcome of this test for "Cc1cccc(N2C(=O)c3ccc(C(=O)NC4CCCCC4)cc3C2=O)c1C" ?
inactive

Short answer needed: outcome of this test for "O=C(COC(=O)c1ccc2c(c1)C(=O)N(c1cccc(Cl)c1Cl)C2=O)c1ccccc1" ?
inactive

Short answer needed: outcome of this test for "Cc1cccc(-c2nnn3c2nc(NCCc2ccc(S(N)(=O)=O)cc2)c2ccc(Cl)cc23)c1" ?
inactive

Short answer needed: outcome of this test for "COc1ccccc1Oc1ccc2c(c1)C(=O)N(c1cccc3ncccc13)C2=O" ?
inactive

Short answer needed: outcome of this test for "Cc1cccc(Oc2ccc(N3C(=O)c4ccc(C(=O)OCC(=O)Nc5cccc(C)c5C)cc4C3=O)cc2)c1" ?
inactive

Short answer needed: outcome of this test for "Fc1cccc(-c2nnn3c2nc(NCCc2ccccc2)c2ccc(Cl)cc23)c1" ?
inactive

Short answer needed: outcome of this test for "Cc1cccc(-c2nnn3c2nc(NCCc2ccc(S(N)(=O)=O)cc2)c2ccccc23)c1" ?
inactive

Short answer needed: outcome of this test for "COc1ccc(CCNc2nc3c(-c4cccc(F)c4)nnn3c3cc(Cl)ccc23)cc1OC" ?
inactive

Short answer needed: outcome of this test for "COc1ccc(CNc2nc3c(-c4cccc(F)c4)nnn3c3cc(Cl)ccc23)cc1" ?
inactive

Short answer needed: outcome of this test for "O=C1c2ccccc2C(=O)N1c1cccc2ncccc12" ?
inactive

Short answer needed: outcome of this test for "CC(C)CNC(=O)c1ccc2c(c1)C(=O)N(c1ccccc1-c1ccccc1)C2=O" ?
inactive

Short answer needed: outcome of this test for "CCCOC(=O)c1ccc2c(c1)C(=O)N(c1cccc3ccccc13)C2=O" ?
inactive

Short answer needed: outcome of this test for "NS(=O)(=O)c1ccc(CCNc2nc3c(-c4cccc(F)c4)nnn3c3ccccc23)cc1" ?
inactive

Short answer needed: outcome of this test for "COc1ccc(CNc2nc3c(-c4cccc(F)c4)nnn3c3ccccc23)cc1" ?
inactive

Short answer needed: outcome of this test for "O=C(NC1CCCCC1)c1ccc2c(c1)C(=O)N(c1ccccc1-c1ccccc1)C2=O" ?
inactive

Short answer needed: outcome of this test for "Cc1ccc(C(=O)COC(=O)c2ccc3c(c2)C(=O)N(c2cccc4ncccc24)C3=O)cc1" ?
inactive

Short answer needed: outcome of this test for "O=C(COC(=O)c1ccc2c(c1)C(=O)N(c1cccc(C(F)(F)F)c1)C2=O)c1ccc(Cl)cc1" ?
inactive

Short answer needed: outcome of this test for "O=C(NCc1ccco1)c1ccc2c(c1)C(=O)N(c1ccc(C(=O)c3ccccc3)cc1)C2=O" ?
inactive

Short answer needed: outcome of this test for "COc1cccc(C(=O)COC(=O)c2ccc3c(c2)C(=O)N(c2cccc(C(F)(F)F)c2)C3=O)c1" ?
inactive

Short answer needed: outcome of this test for "NS(=O)(=O)c1ccc(CCNc2nc3c(-c4ccc(Cl)cc4)nnn3c3ccccc23)cc1" ?
inactive

Short answer needed: outcome of this test for "Cc1ccc(N2C(=O)c3ccc(C(=O)OCC(=O)C(C)(C)C)cc3C2=O)cc1" ?
inactive

Short answer needed: outcome of this test for "NS(=O)(=O)c1ccc(CCNc2nc3c(-c4cccc(C(F)(F)F)c4)nnn3c3ccccc23)cc1" ?
active

Short answer needed: outcome of this test for "COc1ccccc1N1C(=O)c2ccc(C(=O)OCC(=O)c3ccc(Br)cc3)cc2C1=O" ?
inactive

Short answer needed: outcome of this test for "CCOCCCNC(=O)c1ccc2c(c1)C(=O)N(c1ccc(Cn3cncn3)cc1)C2=O" ?
inactive

Short answer needed: outcome of this test for "Cc1ccc(C(=O)COC(=O)c2ccc3c(c2)C(=O)N(c2cccc4ccccc24)C3=O)cc1" ?
inactive

Short answer needed: outcome of this test for "O=C1c2ccc(Oc3ccc(Br)cc3)cc2C(=O)N1c1cccc2ncccc12" ?
inactive

Short answer needed: outcome of this test for "Cc1ccc(N2C(=O)c3ccc(C(=O)N4CCN(Cc5ccccc5)CC4)cc3C2=O)cc1" ?
inactive

Short answer needed: outcome of this test for Cc1ccc(C(=O)C(C)OC(=O)c2ccc3c(c2)C(=O)N(c2cccc(Cl)c2Cl)C3=O)cc1 (stereo not drawn) ?
inactive

Short answer needed: outcome of this test for "NS(=O)(=O)c1ccc(CCNc2nc3c(-c4cccc(Cl)c4)nnn3c3ccccc23)cc1" ?
inactive

Short answer needed: outcome of this test for "O=C(COC(=O)c1ccc2c(c1)C(=O)N(c1cccc3ncccc13)C2=O)c1ccc(Cl)cc1" ?
active

Short answer needed: outcome of this test for "CC(C)(C)NC(=O)c1ccc2c(c1)C(=O)N(c1ccccc1-c1ccccc1)C2=O" ?
inactive

Short answer needed: outcome of this test for "O=C1c2cc(Cl)c(Cl)cc2C(=O)N1c1cccc2ncccc12" ?
inactive

Short answer needed: outcome of this test for "Fc1cccc(-c2nnn3c2nc(NCCc2ccccc2)c2ccccc23)c1" ?
inactive

Short answer needed: outcome of this test for "O=C(OCC(=O)c1cccs1)c1ccc2c(c1)C(=O)N(c1cccc3ccccc13)C2=O" ?
inactive

Short answer needed: outcome of this test for "O=C(COC(=O)c1ccc2c(c1)C(=O)N(c1cc(C(F)(F)F)ccc1Cl)C2=O)c1ccccc1" ?
inactive

Short answer needed: outcome of this test for "Cc1ccc(CNc2nc3c(-c4cccc(F)c4)nnn3c3cc(Cl)ccc23)cc1" ?
inactive

Taken from PubChem BioAssay AID743243.
